# Tested on: Echinochloa crus-galli (ECHCG)
# protocol_text: Post-emergence herbicidal activity, glasshouse pot test
# Type: in vivo
# Design: key: 5=total damage to plant; 0=no damage to plant
# test_conditions: 1000 g/ha, post-emergence spray after 8 days cultivation, evaluated after 13 days, damage score 0-5
# Procedure: Seeds of a variety of test species were sown in standard soil in pots: Triticum aestivium (TRZAW), Avena fatua (AVEFA), Alopecurus myosuroides (ALOMY), Echinochloa crus-galli (ECHCG), Lolium perenne (LOLPE), and Setaria faberi (SETFA). […] After 13 days, the test was evaluated (5=total damage to plant; 0=no damage to plant).
Quick list: Control of weed species after post-emergence application, ECHCG per entry.
# output: bare number, no unit

Some compounds with recorded Control of weed species after post-emergence application, ECHCG:
CC(C)(C)C(=O)Nc1cnc(-c2cncc(F)c2)nc1C(F)(F)F [Compound F6]: 5
O=C1CCCN1c1cnc(-c2cncc(F)c2)nc1C(F)(F)F [Compound F22]: 5
O=C(Nc1cnc(-c2cncc(F)c2)nc1C(F)(F)F)C1CCC1 [Compound F26]: 5
CCC(=O)N(C(=O)CC)c1cnc(-c2cncc(F)c2)nc1C(F)(F)F [Compound F7]: 5
CCC(=O)Nc1cnc(-c2cncc(F)c2)nc1C(F)(F)F [Compound F4]: 4

(Q) // fetch Control of weed species after post-emergence application, ECHCG given entry O=C(Nc1cnc(-c2cncc(F)c2)nc1C(F)(F)F)c1ccccc1 [Compound F10]
(A) 5

(Q) Answer with the recorded Control of weed species after post-emergence application, ECHCG for the compound listed here: CC(=O)Nc1cnc(-c2cncc(F)c2)nc1C(F)(F)F [Compound F11]
(A) 4

(Q) Dear colleague, please send me the reported Control of weed species after post-emergence application, ECHCG for O=C(Nc1cnc(-c2cncc(F)c2)nc1C(F)(F)F)C1CC1 [Compound F14] when you can.
(A) 5

(Q) Provide one value: measured Control of weed species after post-emergence application, ECHCG of CC(=O)Nc1cnc(-c2cncnc2)nc1C(F)(F)F [Compound F31]
(A) 4

====

# Test system: Echinochloa crus-galli (ECHCG)
# protocol_text: Post-emergence herbicidal activity, glasshouse pot test
# Type: in vivo
# Set-up: key: 5=total damage to plant; 0=no damage to plant
# test_conditions: 1000 g/ha, post-emergence spray after 8 days cultivation, evaluated after 13 days, damage score 0-5
Reported Control of weed species after post-emergence application, ECHCG values are given for each entry in this list.
Answer with a bare number; do not write a unit.

Cc1nc(-c2cncnc2)ncc1N(C(=O)C(C)C)C(=O)C(C)C [Compound F2]: 5
O=C(C1CC1)N(C(=O)C1CC1)c1cnc(-c2cncc(F)c2)nc1C(F)(F)F [Compound F21]: 3

(Q) Consider the compound COCCC(=O)Nc1cnc(-c2cncc(F)c2)nc1C(F)(F)F [Compound F15] and give its recorded Control of weed species after post-emergence application, ECHCG.
(A) 4

(Q) Indicate its recorded Control of weed species after post-emergence application, ECHCG; the compound in question is O=C(CCC1CCCC1)Nc1cnc(-c2cncc(F)c2)nc1C(F)(F)F [Compound F19]
(A) 4

(Q) Query Control of weed species after post-emergence application, ECHCG for CC(C)C(=O)Nc1cnc(-c2cncc(F)c2)nc1C(F)(F)F [Compound F13]
(A) 5

(Q) Please report the measured Control of weed species after post-emergence application, ECHCG for Cc1nc(-c2cncnc2)ncc1NC(=O)C(C)C [Compound F1]
(A) 4

(Q) Provide one value: measured Control of weed species after post-emergence application, ECHCG of CC(C)=CC(=O)Nc1cnc(-c2cncc(F)c2)nc1C(F)(F)F [Compound F24]
(A) 5

(Q) Provide one value: measured Control of weed species after post-emergence application, ECHCG of O=C(CC(F)(F)F)Nc1cnc(-c2cncc(F)c2)nc1C(F)(F)F [Compound F23]
(A) 5

(Q) Read the entry CCCCC(=O)Nc1cnc(-c2cncc(F)c2)nc1C(F)(F)F [Compound F12] and write its reported Control of weed species after post-emergence application, ECHCG.
(A) 4
